Catalogue of compounds with associated percent inhibition of viability
# System: normal primary NK cells, pool 1 (3 donors), resting (IL-2 0 ng/mL);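 note: normalised to DMSO-only wells as negative and benzethonium chloride as positive control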
# assay.details: percent inhibition of viability; higher = more inhibition
# recorded.conditions: 72 h; 100 nM

Guide cases for percent inhibition of viability, answers given:
{"columns": ["compound", "tested.system", "percent inhibition of viability"],
 "data": [
  ["CO[C@@]12[C@H](COC(N)=O)C3=C(C(=O)C(C)=C(N)C3=O)N1C[C@@H]1N[C@@H]12 [Mitomycin C] (max concentration tested 10000 nM)", "normal primary NK cells, pool 1 (3 donors), resting (IL-2 0 ng/mL)", "12.1%"],
  ["CCC/C=C/C=C/C(=O)O[C@H]1/C(=C/C(=O)OC)C[C@H]2C[C@H]([C@@H](C)O)OC(=O)C[C@H](O)C[C@@H]3C[C@H](OC(C)=O)C(C)(C)[C@](O)(C[C@@H]4C/C(=C/C(=O)OC)C[C@H](/C=C/C(C)(C)[C@]1(O)O2)O4)O3 [Bryostatin 1] (max concentration tested 100 nM)", "normal primary NK cells, pool 1 (3 donors), resting (IL-2 0 ng/mL)", "5.47%"],
  ["CCc1cc(Nc2nccc(-c3c(-c4ccc(OC)c(C(=O)Nc5c(F)cccc5F)c4)nc4ccccn34)n2)c(OC)cc1N1CCC(N2CCN(S(C)(=O)=O)CC2)CC1 (max concentration tested 10000 nM)", "normal primary NK cells, pool 1 (3 donors), resting (IL-2 0 ng/mL)", "5.14%"]
]}

Prompt: Hello, please tell me recorded percent inhibition of viability for this one: Cc1ccc(NC(=O)c2ccc(CN3CCN(C)CC3)cc2)cc1Nc1nccc(-c2cccnc2)n1 [Imatinib] (max concentration tested 10000 nM)
Response: 7.28%

Prompt: State its percent inhibition of viability for this compound: CC(C)(C)Cn1c(N)nc2ccc(-c3[nH]c(C(C)(C)C)nc3-c3ccc(F)cc3)nc21 [Ralimetinib] (max concentration tested 10000 nM)
Response: -0.22%

Prompt: Give the measured percent inhibition of viability for CCN(c1cc(-c2ccc(CN3CCOCC3)cc2)cc(C(=O)NCc2c(C)cc(C)[nH]c2=O)c1C)C1CCOCC1 [E7438] (max concentration tested 10000 nM)
Response: 9.19%

Prompt: Look up and report measured percent inhibition of viability for this entry: Cc1nc(N)sc1-c1ccnc(Nc2ccc(N3CCOCC3)cc2)n1 [CYC-116] (max concentration tested 10000 nM)
Response: -9.95%

Prompt: Provide one value: measured percent inhibition of viability of CCCCCOC(=O)Nc1nc(=O)n([C@@H]2O[C@H](C)[C@@H](O)[C@H]2O)cc1F [Capecitabine] (max concentration tested 10000 nM)
Response: 13.7%

Prompt: Give the reported percent inhibition of viability for this compound. Cc1ccc(NC(=O)c2ccc(CN3CC[C@H](N(C)C)C3)c(C(F)(F)F)c2)cc1Nc1nccc(-c2cncnc2)n1 [Bafetinib] (max concentration tested 1000 nM)
Response: -0.62%

Prompt: Return percent inhibition of viability for the following compound: CO[C@H]1C[C@@H]2CC[C@@H](C)[C@@](O)(O2)C(=O)C(=O)N2CCCC[C@H]2C(=O)O[C@H]([C@H](C)C[C@@H]2CC[C@@H](O)[C@H](OC)C2)CC(=O)[C@H](C)/C=C(\C)[C@@H](O)[C@@H](OC)C(=O)[C@H](C)C[C@H](C)/C=C/C=C/C=C/1C [Sirolimus] (max concentration tested 100 nM)
Response: 13.7%
